- Test system: human salivary gland epithelial cells
- Run description: Small molecule compound combination check in K-SFM
- Type: cell-based
- Condition info: various combinations of small molecule compounds
- Excerpt: Isoproterenol had no effect.
Parameter: result of addition to the culture

>>> print(df.to_string())
                            molecule_smiles                    experimental_system                          parameter           observed_result
0  Cc1cccc(-c2nn(C(=S)Nc3ccccc3)cc2-c2ccnc3ccccc23)n1  human salivary gland epithelial cells  result of addition to the culture  universally good results
1  Cc1c[nH]c(-c2cnc(NCCNc3ccc(C#N)cn3)nc2-c2ccc(Cl)cc2Cl)n1  human salivary gland epithelial cells  result of addition to the culture              poor results
2  C[C@@H](N)[C@H]1CC[C@H](C(=O)Nc2ccncc2)CC1  human salivary gland epithelial cells  result of addition to the culture  universally good results
3  O=C(NOC[C@H](O)CO)c1ccc(F)c(F)c1Nc1ccc(I)cc1F  human salivary gland epithelial cells  result of addition to the culture              poor results
